Test: in vitro
Details: Nanoclick permeability assay EC50
Positions of bridges follow the written chain, without caps; N, C: chain ends. Non-standard residues stand in square brackets, D forms with d. Residues, ends and D or L forms follow the SMILES beside them. Lys(N3) = [N-]=[N+]=NCCCC[C@H](N)C(=O)O; R8 = C=CCCCCCC[C@@](C)(N)C(=O)O; Cba = N[C@@H](CC1CCC1)C(=O)O; S5 = C=CCCC[C@](C)(N)C(=O)O; βAla = NCCC(=O)O
Simple rule here: cell entry EC50 less than 300 nM is 1.0, otherwise 0.0.

Lookup: Hi there! Is cell entry EC50 for CC(=O)N[C@@H](CCCCN=[N+]=[N-])C(=O)NCCC(=O)N[C@@H](CC(C)C)C(=O)NC(C)(C)C(=O)N[C@@H](Cc1ccccc1)C(=O)N[C@]1(C)CCCCCCC=CCCC[C@@](C)(C(=O)N[C@@H](CO)C(=O)N[C@@H](C)C(=O)N[C@@H](C)C(N)=O)NC(=O)[C@H](CC2CCC2)NC(=O)[C@H](CCC(N)=O)NC(=O)[C@H](C)NC(=O)[C@H](Cc2c[nH]c3ccccc23)NC(=O)[C@H](Cc2ccc(O)cc2)NC(=O)[C@H](CCC(=O)O)NC1=O below 300 nM, do you know?
Found: 1.0

Lookup: Ok, now CC(C)C[C@@H]1NC(=O)[C@H](C)NC(=O)[C@H](Cc2c[nH]c3ccccc23)NC(=O)[C@H](Cc2ccc(O)cc2)NC(=O)[C@H](CCC(=O)O)NC(=O)[C@](C)(NC(=O)[C@H](Cc2ccccc2)NC(=O)[C@H](CO)NC(=O)[C@@H](NC(=O)[C@H](CO)NC(=O)CNC(=O)[C@H](CO)NC(=O)[C@H](CCCCN=[N+]=[N-])NC(=O)[C@@H](N)CCC(=O)O)[C@@H](C)O)CCCCCCC=CCCC[C@@](C)(C(N)=O)NC(=O)[C@H](CC(C)C)NC1=O
Found: 0.0

Lookup: Ok, now CC(=O)N[C@@H](CCCCN=[N+]=[N-])C(=O)NCCC(=O)N[C@@H](CC(C)C)C(=O)N[C@H](C(=O)N[C@@H](Cc1ccccc1)C(=O)N[C@]1(C)CCCCCCC=CCCC[C@@](C)(C(=O)N[C@@H](C)C(=O)N[C@@H](C)C(=O)N[C@@H](C)C(N)=O)NC(=O)[C@H](CC2CCC2)NC(=O)[C@H](CCC(N)=O)NC(=O)[C@H](C)NC(=O)[C@H](Cc2c[nH]c3ccccc23)NC(=O)[C@H](Cc2ccc(O)cc2)NC(=O)[C@H](C)NC1=O)[C@@H](C)O [MP-8965] (Ac-[Lys(N3)][βAla]LTF[R8]AYWAQ[Cba][S5]AAA-NH2; staple 6-13)
Found: 1.0

Lookup: Ok, now CC(=O)N[C@@H](CCCCN=[N+]=[N-])C(=O)NCCC(=O)N[C@@H](CC(C)C)C(=O)N[C@H](C(=O)N[C@@H](Cc1ccccc1)C(=O)N[C@]1(C)CCCCCCC=CCCC[C@@](C)(C(=O)N[C@@H](CO)C(=O)N[C@@H](C)C(=O)N[C@@H](C)C(N)=O)NC(=O)[C@H](CCC(=O)O)NC(=O)[C@H](CCC(N)=O)NC(=O)[C@H](C)NC(=O)[C@H](Cc2c[nH]c3ccccc23)NC(=O)[C@H](Cc2ccc(O)cc2)NC(=O)[C@H](CCC(=O)O)NC1=O)[C@@H](C)O
Found: 0.0

Lookup: Ok, now CC(=O)N[C@@H](CCCCN=[N+]=[N-])C(=O)NCCC(=O)N[C@@H](CC(C)C)C(=O)N[C@@H](CCC(=O)O)C(=O)N[C@@H](Cc1ccccc1)C(=O)N[C@]1(C)CCCCCCC=CCCC[C@@](C)(C(=O)N[C@@H](CO)C(=O)N[C@@H](C)C(=O)N[C@@H](C)C(N)=O)NC(=O)[C@H](CC2CCC2)NC(=O)[C@H](CCC(N)=O)NC(=O)[C@H](C)NC(=O)[C@H](Cc2c[nH]c3ccccc23)NC(=O)[C@H](Cc2ccc(O)cc2)NC(=O)[C@H](CCC(=O)O)NC1=O
Found: 1.0
